Overview of reported log10 of IC50 across a group of binders:
biological target: HLA-DRB1*1101 (human); test: competition binding; details: modification not given
Please keep in mind that the values are log10 of IC50 expressed in µM.

Use the examples below as a reference point.
BINDER: KPLTLRWEPSSQPTI [p50*]
log10 of IC50: 1.06

BINDER: TELVETRPAGDGTFQ [p44]
log10 of IC50: 0.94

BINDER: IAVGYVDDTQFVRFD [p5]
log10 of IC50: 0.96

BINDER: VGYVDDTQFVRFDSD [p6]
log10 of IC50: 0.45

BINDER: KDYIALKEDLRSWTA [p25]
log10 of IC50: -1.38

What log10 of IC50 value was documented for this binder, RGYYNQSEAGSHTVQ [p16*] ?
0.50
